pIC50: −log10 of the molar value.
Kindly find below pIC50 information for RNA-directed RNA polymerase (Hepacivirus hominis, UniProt O39930) taken from the literature.
PARAMETER: pIC50

Worked cases, pIC50 given:
> print(dat)
                                   molecule  parameter  observed
1    O=C(O)c1ccc2c(c1)nc(-c1ccccn1)n2C1CCC1      pIC50      4.12
2  O=C(N[C@H](Cc1c[nH]c2ccc(O)cc12)C(=O)O)c1ccc2c(c1)nc(-c1ccoc1)n2C1CCCCC1      pIC50      6.15
3  COc1ccc2c(C(=O)NC(CC(=O)O)C(=O)O)cccc2c1C(F)(F)F (stereo not given)      pIC50      5.89

A: O=C(O)C(=O)/C=C(\O)c1cccc(OCc2ccccc2)c1
B: CC(C)(C)CCN1C(=O)C(C2=NS(=O)(=O)c3ccccc3N2)=C(O)[C@@H]1C1CCCCC1
Between A and B , which one shows the smaller pIC50 number? API: response body contains the label of the selected item.
A

###

pIC50: −log10 of the molar value.
Header: pIC50 / RNA-directed RNA polymerase (Hepacivirus hominis, UniProt O39930) / multiple publications
PARAMETER: pIC50

COMPOUND	OBSERVED
CC(C)C[C@@]1(C(=O)O)C[C@H](C(=O)O)C(c2cccs2)N1C(=O)c1ccc(C(F)(F)F)cc1 (single isomer, unassigned)	4.74
O=C(O)[C@H]1CCCN1S(=O)(=O)c1cc(Cl)cc(Cl)c1O	5.10

A: O=C(Cc1ccc(F)cc1)N/C(=C\c1ccc(Oc2ccccc2Br)cc1)C(=O)O
B: O=C(O)C(=O)/C=C(\O)C12C[C@H]3C[C@@H](C1)C[C@@H](C2)C3
// compare: A vs B , metric pIC50, want the smaller Your choice should be expressed through its label.
B
(B: 5.17, A: 5.66)

###

Consider the following pIC50 data for RNA-directed RNA polymerase (Hepacivirus hominis, UniProt O39930), collected from several reports.
pIC50: −log10 of the molar value.
PARAMETER: pIC50

I: N#Cc1c(Cl)cc(Cl)cc1COc1cccc(/C(O)=C/C(=O)C(=O)O)c1
II: C[C@@]1(F)[C@H](F)[C@@H](COP(=O)(O)OP(=O)(O)OP(=O)(O)O)O[C@H]1n1cnc2c(=O)[nH]c(N)nc21
III: C[C@H]1CCCC[C@@H]1N(C(=O)c1ccc(Oc2ccccc2)cc1)c1ncc(C(=O)O)s1 (single isomer, unassigned; trans)
Ranking request: pIC50, max to min, items above. Sort the labels as requested; that list is your answer.
I, II, III
(I: 7.35, II: 6.51, III: 5.03)

a: O=C(O)C(=O)/C=C(\O)c1ccc(-c2ccc(F)c(Cl)c2)o1
b: N#Cc1cccc(Cn2ccc(/C(O)=C/C(=O)C(=O)O)c2)c1
c: COc1ccccc1-c1ccc(/C=C(\NC(=O)c2ccccc2)C(=O)O)o1
d: Cc1ccccc1-c1ccc(/C=C(\NC(=O)c2ccccc2)C(=O)O)s1
With regard to pIC50, arrange the entries in ascending order, please. Your answer should be the labels, listed in the requested order.
a, c, b, d
(a: 4.39, c: 4.70, b: 5.34, d: 5.85)

A: O=C(O)c1cnc(N(C(=O)c2ccc(Oc3ccccc3)cc2)C2CCCCC2)s1
B: O=C(O)[C@H]1C[C@@](Cc2ccccc2)(C(=O)O)N(C(=O)c2ccc(C(F)(F)F)cc2)[C@H]1c1ccccc1
C: O=C(O)C(=O)/C=C(\O)c1cnc2cc(Cl)ccc2c1O
With regard to pIC50, arrange the entries in ascending order, please. Dear reader, please state the labels in the requested order.
C, A, B

P: CCNc1ncnc2nc(-c3ccc(F)cc3)c(-c3ccc(F)cc3)nc12
Q: CCNc1ncnc2nc(-c3ccccc3)c(-c3ccccc3)nc12
// compare measured pIC50 between P and Q ; output the lower one Answer = label.
Q
(Q: 4.80, P: 5.54)

1: O=C(O)/C(=C/c1ccc(-c2ccc(F)cc2)o1)NC(=O)c1ccccc1
2: CC(C)C[C@@]1(C(=O)O)C[C@H](C(=O)O)[C@H](c2cccs2)N1C(=O)c1ccc([N+](=O)[O-])cc1
3: O=C(O)c1ccc2c(c1)nc(C(=O)c1ccccc1)n2C1CCCCC1
4: O=C(N[C@@H](Cc1c[nH]c2ccccc12)C(=O)O)c1ccc2c(c1)nc(-c1ccccn1)n2C1CCCCC1
Arrange items by their pIC50 values in increasing order. # answer = labels listed in requested order
3, 1, 2, 4

1: O=C(O)C(=O)/C=C(\O)c1ccccc1OCc1ccccc1
2: O=C(O)[C@H](Cc1ccccc1)N(Cc1ccccc1Br)C(=O)c1ccc(Cl)cc1Cl
Hey, which is lower on measured pIC50, 1 or 2 ? Please respond with the label that marks your chosen entry.
1
(1: 4.36, 2: 5.10)

###

Assembled from different publications: IC50 for RNA-directed RNA polymerase (Hepacivirus hominis, UniProt O39930).
PARAMETER: IC50 (µM)

> print(dat)
                            molecule.smiles  parameter  observed
1  CS(=O)(=O)Nc1ccc2[nH]cc(C[C@H](NC(=O)c3ccc4c(c3)nc(-c3ccoc3)n4C3CCCCC3)C(=O)O)c2c1       IC50      0.12

1: Cc1cc(S(=O)(=O)Nc2cc(-c3ccccc3)sc2C(N)=O)c(C)cc1Cl
2: C[C@]1(F)[C@H](n2cnc3c(=O)[nH]c(N)nc32)O[C@](F)(COP(=O)(O)OP(=O)(O)OP(=O)(O)O)[C@H]1O
3: O=C(O)c1sc(-c2ccc(F)cc2)cc1NS(=O)(=O)c1ccccn1
4: O=C(N[C@@H](Cc1ccc(O)cc1)C(=O)O)c1ccc2c(c1)nc(-c1ccoc1)n2C1CCCCC1
Give the ascending ranking of the items by reported IC50. Would you mind listing the labels in the order asked for?
2, 4, 3, 1
(2: 0.16 µM, 4: 0.4 µM, 3: 4 µM, 1: 14 µM)

###

pIC50: −log10 of the molar value.
Across several studies, compounds have been characterized by their pIC50 on RNA-directed RNA polymerase (Hepacivirus hominis); a selection follows.
PARAMETER: pIC50

> print(dat)
                              compound  observed
1  O=C(O)C(=O)/C=C(\O)c1cccn1Cc1ccccc1      4.54

I: COc1ccc([C@H](C)NC(=O)c2ccc3c(c2)nc(-c2ccccn2)n3C2CCCCC2)cc1OC
II: CC(C)(C)[C@H]1CC[C@H](N(C(=O)c2ccc(Oc3ccccc3)cc2)c2ncc(C(=O)O)s2)CC1 (stereo in doubt; cis)
// compare measured pIC50, left I , right II , return larger Record your answer as the label of the chosen record.
II
(II: 5.47, I: 4.92)

###

// read-out IC50, gathered for RNA-directed RNA polymerase (Hepacivirus hominis, UniProt O39930) from published studies
PARAMETER: IC50 (nM)

A: CC(C)C[C@@]1(C(=O)O)C[C@H](C(=O)O)[C@H](c2cccs2)N1C(=O)c1ccc(Cl)cc1
B: CC(C)C[C@@]1(C(=O)O)C[C@H](C(=O)O)[C@H](c2cccs2)N1C(=O)c1ccc(Cl)c(Cl)c1
# compare IC50 for A vs B ; return the one with the smaller value Pick one; state its label.
B

P: O=C(CCc1ccc(C(F)(F)F)cc1)N/C(=C\c1ccc(Oc2ccccc2Br)cc1)C(=O)O
Q: O=C(O)C(=O)/C=C(\O)c1cc(I)cn1Cc1ccc(F)cc1
Lab note: record which item had the higher IC50, P or Q . // respond with label for picked entry
Q
(Q: 18000 nM, P: 370 nM)

###

Header: IC50 / RNA-directed RNA polymerase (Hepacivirus hominis) / multiple publications
PARAMETER: IC50 (µM)

The cases that follow already have their IC50 on record.
> print(dat)
                                    compound  observed
 1  O=C(O)C(=O)CC(=O)c1cccc(NS(=O)(=O)c2ccccc2)c1        16
 2  O=C(N[C@@H](Cc1c[nH]c2ccccc12)C(=O)O)c1ccc2c(c1)nc(-c1ccoc1)n2C1CCCCC1       0.4
 3  O=C(O)/C(=C/c1ccc(Oc2ccccc2I)cc1)NC(=O)c1ccccc1      0.04
 4  O=C(O)[C@H](Cc1ccccc1)N(Cc1ccc(-c2cc3ccccc3o2)s1)C(=O)c1ccc(Cl)cc1Cl       8.6
 5         N#CCCCCn1cccc1/C(O)=C/C(=O)C(=O)O        13
 6   O=C(O)C(=O)/C=C(\O)c1cccc(NCc2ccccc2)c1        17
 7  COc1ccc(Cn2cccc2/C=C/C(O)=C/C(=O)C(=O)O)cc1        16
 8  C#C[C@]1(F)[C@H](n2cnc3c(=O)[nH]c(N)nc32)O[C@](F)(COP(=O)(O)OP(=O)(O)OP(=O)(O)O)[C@H]1O      0.15
 9  CN(C)CCN1CCn2c(c(C3CCCCC3)c3ccc(C(=O)O)cc32)-c2ccccc21.Cl.Cl     0.018
10  Cc1ccc2[nH]cc(C[C@H](NC(=O)c3ccc4c(c3)nc(-c3ccoc3)n4C3CCCCC3)C(=O)O)c2c1       2.2

a: CC(=O)N1CCn2c(c(C3CCCCC3)c3ccc(C(=O)O)cc32)-c2ccccc21
b: O=C(O)c1ccc2c(c1)nc(-c1cc3ccccc3o1)n2C1CCCCC1
c: O=C(O)C(=O)/C=C(\O)c1cccc(NC(=O)C(=O)O)c1
Sort these compounds on IC50 so the largest reading comes first. Give the labels in the order specified.
b, c, a
(b: 58 µM, c: 19 µM, a: 0.12 µM)

P: C[C@]1(Cl)[C@H](n2ccc(=O)[nH]c2=O)O[C@](F)(COP(=O)(O)OP(=O)(O)OP(=O)(O)O)[C@H]1O
Q: COc1ccc([C@@H](C)NC(=O)c2ccc3c(c2)nc(-c2ccccn2)n3C2CCCCC2)cc1OC
R: O=C(O)/C(=C/c1ccc(Oc2c(F)cccc2Cl)cc1)NC(=O)c1ccccc1
Form: Sort by [IC50] Order [ ascending ] A complete answer lists every label in the requested sequence.
R, P, Q
(R: 0.07 µM, P: 0.11 µM, Q: 3 µM)

a: O=C(O)C(=O)CC(=O)c1cccc(NCc2ccccc2)c1
b: O=C(O)[C@H](Cc1ccccc1)N(Cc1cccc(Cl)c1)C(=O)c1ccc(Cl)cc1Cl
c: CS(=O)(=O)c1nc(-c2cccs2)nc(C(=O)O)c1O
// ranking: key=IC50, reverse=True Give the order by naming the labels one after another as requested.
c, a, b
